Origin of the recorded values: patent US9597314B2

biological target: V1a (Homo sapiens, UniProt P37288); assay: Human vasopression V1a receptor binding assay; design: host or cells: CHO cells (hV1a cell line), whole adherent cells; settings: hV1a cell line (CHO), 1 nM 3H-AVP; Table 17; read-out: V1a Binding Affinity (IC50 (nM))
Sequence (P37288 whole entry): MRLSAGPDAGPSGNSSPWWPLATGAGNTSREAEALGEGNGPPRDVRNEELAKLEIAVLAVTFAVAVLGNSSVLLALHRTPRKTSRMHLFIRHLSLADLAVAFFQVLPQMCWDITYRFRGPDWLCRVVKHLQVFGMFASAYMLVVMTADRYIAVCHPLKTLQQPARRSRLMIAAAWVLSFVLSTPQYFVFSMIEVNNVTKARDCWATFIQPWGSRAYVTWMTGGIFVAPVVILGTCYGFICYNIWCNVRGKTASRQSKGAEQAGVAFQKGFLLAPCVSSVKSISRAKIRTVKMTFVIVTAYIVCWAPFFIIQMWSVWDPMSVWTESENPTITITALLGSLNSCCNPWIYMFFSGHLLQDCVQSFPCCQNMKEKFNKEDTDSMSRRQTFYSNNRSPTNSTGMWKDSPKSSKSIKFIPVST
endpointName: log10 IC50 (log10 of the value in nM)

{"compound": "O=C(NC1(c2ccccc2)CCCCC1)[C@H](CCC(=O)N1CCN(C2CCCCC2)CC1)N1C(=O)[C@@H](N2C(=O)OC[C@@H]2c2ccccc2)[C@H]1/C=C/c1ccccc1 [Example 221G]", "assaySystem": "V1a (Homo sapiens, UniProt P37288)", "observedMeasurement": 0.18}
{"compound": "COc1cccc([C@H](C)NC(=O)[C@H](CCC(=O)N2CCN(C3CCCCC3)CC2)N2C(=O)[C@@H](N3C(=O)OC[C@@H]3c3ccccc3)[C@H]2/C=C/c2ccccc2)c1", "assaySystem": "V1a (Homo sapiens, UniProt P37288)", "observedMeasurement": 0.39}
{"compound": "O=C(NCc1cccc(OC(F)(F)F)c1)[C@H](CCC(=O)N1CCN(C2CCCCC2)CC1)N1C(=O)[C@@H](N2C(=O)OC[C@@H]2c2ccccc2)[C@H]1/C=C/c1ccccc1", "assaySystem": "V1a (Homo sapiens, UniProt P37288)", "observedMeasurement": 0.65}
{"compound": "CC(C)(NC(=O)[C@H](CCC(=O)N1CCN(C2CCCCC2)CC1)N1C(=O)[C@@H](N2C(=O)OC[C@@H]2c2ccccc2)[C@H]1/C=C/c1ccccc1)c1ccccc1", "assaySystem": "V1a (Homo sapiens, UniProt P37288)", "observedMeasurement": 0.78}
{"compound": "COc1cc(CNC(=O)[C@H](CCC(=O)N2CCN(C3CCCCC3)CC2)N2C(=O)[C@@H](N3C(=O)OC[C@@H]3c3ccccc3)[C@H]2/C=C/c2ccccc2)cc(OC)c1", "assaySystem": "V1a (Homo sapiens, UniProt P37288)", "observedMeasurement": 1.02}
{"compound": "O=C(NCc1cccc(Cl)c1Cl)[C@H](CCC(=O)N1CCN(C2CCCCC2)CC1)N1C(=O)[C@@H](N2C(=O)OC[C@@H]2c2ccccc2)[C@H]1/C=C/c1ccccc1", "assaySystem": "V1a (Homo sapiens, UniProt P37288)", "observedMeasurement": -0.21}
{"compound": "O=C(NCc1ccccn1)[C@H](CCC(=O)N1CCN(C2CCCCC2)CC1)N1C(=O)[C@@H](N2C(=O)OC[C@@H]2c2ccccc2)[C@H]1/C=C/c1ccccc1", "assaySystem": "V1a (Homo sapiens, UniProt P37288)", "observedMeasurement": 1.21}
{"compound": "O=C(NCc1ccncc1)[C@H](CCC(=O)N1CCN(C2CCCCC2)CC1)N1C(=O)[C@@H](N2C(=O)OC[C@@H]2c2ccccc2)[C@H]1/C=C/c1ccccc1", "assaySystem": "V1a (Homo sapiens, UniProt P37288)", "observedMeasurement": 1.47}
{"compound": "O=C(NC1(c2ccc(F)cc2)CCCC1)[C@H](CCC(=O)N1CCN(C2CCCCC2)CC1)N1C(=O)[C@@H](N2C(=O)OC[C@@H]2c2ccccc2)[C@H]1/C=C/c1ccccc1 [Example 221I]", "assaySystem": "V1a (Homo sapiens, UniProt P37288)", "observedMeasurement": 1.08}
